These measurements were taken from paper PMC4336329.

- ASSAY_TARGET: human ether-à-go-go-related gene (hERG) potassium channel (human, UniProt Q12809)
- Sequence (Q12809 whole entry, looked up): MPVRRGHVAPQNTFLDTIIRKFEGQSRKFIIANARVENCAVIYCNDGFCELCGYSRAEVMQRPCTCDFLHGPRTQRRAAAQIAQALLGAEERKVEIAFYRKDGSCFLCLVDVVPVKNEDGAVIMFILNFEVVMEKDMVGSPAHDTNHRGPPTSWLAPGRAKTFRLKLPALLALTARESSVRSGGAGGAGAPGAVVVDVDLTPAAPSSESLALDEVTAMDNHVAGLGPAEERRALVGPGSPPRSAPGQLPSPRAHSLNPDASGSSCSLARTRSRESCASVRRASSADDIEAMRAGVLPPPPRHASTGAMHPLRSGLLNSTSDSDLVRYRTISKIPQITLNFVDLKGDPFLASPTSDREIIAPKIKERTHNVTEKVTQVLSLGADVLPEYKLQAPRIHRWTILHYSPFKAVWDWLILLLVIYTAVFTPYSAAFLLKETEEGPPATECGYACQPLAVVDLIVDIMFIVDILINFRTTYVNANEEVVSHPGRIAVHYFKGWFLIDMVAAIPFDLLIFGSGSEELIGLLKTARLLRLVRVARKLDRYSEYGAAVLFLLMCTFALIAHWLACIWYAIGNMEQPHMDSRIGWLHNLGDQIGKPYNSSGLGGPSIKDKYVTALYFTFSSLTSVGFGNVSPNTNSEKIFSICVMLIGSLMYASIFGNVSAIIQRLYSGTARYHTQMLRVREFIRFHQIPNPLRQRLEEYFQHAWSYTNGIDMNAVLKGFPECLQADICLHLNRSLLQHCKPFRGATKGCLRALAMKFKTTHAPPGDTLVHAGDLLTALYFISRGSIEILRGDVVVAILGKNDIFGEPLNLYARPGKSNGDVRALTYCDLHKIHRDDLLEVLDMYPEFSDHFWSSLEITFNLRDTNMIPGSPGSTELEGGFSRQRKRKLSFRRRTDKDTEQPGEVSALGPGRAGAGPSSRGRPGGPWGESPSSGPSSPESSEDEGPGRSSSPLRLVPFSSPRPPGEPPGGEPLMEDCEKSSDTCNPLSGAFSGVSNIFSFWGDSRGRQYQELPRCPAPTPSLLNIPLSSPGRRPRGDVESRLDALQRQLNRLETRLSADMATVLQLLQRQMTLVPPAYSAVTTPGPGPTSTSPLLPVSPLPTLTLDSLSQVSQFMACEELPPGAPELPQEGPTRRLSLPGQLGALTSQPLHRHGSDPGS
- METHOD_NOTES: primary screen, population patch clamp on CHO cells stably expressing hERG; higher = less effect of the substance
- Excerpt: Briefly, Chinese hamster ovary (CHO) cells stably expressing the hERG channel were dislodged from tissue culture flasks and dispensed into PPC plates. […] Small molecule effects on hERG current density were quantified by […].
The campaign covered roughly 310,000 compounds. About 2,200 (0.71%) showed an effect of 50% or more. The effect is printed as a negative number. The sample holds strong results, similar compounds and a random draw of the others, so the mix is not that of the screen.
MEASURE: hERG current change (%, negative = inhibition) at 1uM (%)
Form entry: value (%) — number only.

input: Find the recorded hERG current change (%, negative = inhibition) at 1uM belonging to O=C(CN1CCN(Cc2ccccc2)CC1)Nc1ccccc1-c1ccccc1 and report it.
output: -39.6

input: Find the recorded hERG current change (%, negative = inhibition) at 1uM belonging to NC(=O)c1ccccc1NC(=O)CN1CCN(Cc2ccccc2)CC1 and report it.
output: -77.7

input: Find the recorded hERG current change (%, negative = inhibition) at 1uM belonging to CSc1ccc(/C=N/NC(=O)CN2CCN(Cc3ccc(C)cc3)CC2)cc1 and report it.
output: 2.67

input: Find the recorded hERG current change (%, negative = inhibition) at 1uM belonging to Cl.c1ccc2c(c1)nc1n2CCN1CCN1CCCC1 and report it.
output: 18.3

input: Find the recorded hERG current change (%, negative = inhibition) at 1uM belonging to CNc1nnc(SCC(=O)N2c3ccccc3NC(=O)CC2C)s1 (stereo not drawn) and report it.
output: 6.91

input: Find the recorded hERG current change (%, negative = inhibition) at 1uM belonging to NC(=O)c1ccccc1NC(=O)CN1CCCCCC1 and report it.
output: 13.4
